meta.source: PubChem BioAssay AID504847

Entries annotated with measured max response, negative = inhibition
Test System: Vitamin D3 receptor (Homo sapiens) (UniProt P11473)
Sequence (P11473 whole entry, looked up): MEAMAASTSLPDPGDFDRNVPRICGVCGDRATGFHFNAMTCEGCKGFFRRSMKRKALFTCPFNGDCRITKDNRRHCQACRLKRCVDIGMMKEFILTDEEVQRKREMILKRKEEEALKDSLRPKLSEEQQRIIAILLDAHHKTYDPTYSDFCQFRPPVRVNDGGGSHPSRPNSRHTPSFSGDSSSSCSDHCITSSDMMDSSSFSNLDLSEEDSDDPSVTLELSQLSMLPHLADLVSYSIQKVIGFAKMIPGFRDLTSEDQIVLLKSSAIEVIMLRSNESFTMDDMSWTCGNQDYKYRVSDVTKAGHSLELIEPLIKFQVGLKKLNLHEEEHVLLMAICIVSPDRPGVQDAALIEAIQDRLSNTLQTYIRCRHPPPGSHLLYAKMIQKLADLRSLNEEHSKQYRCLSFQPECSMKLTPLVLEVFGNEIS
Procedure Summary: Inhibitors of the vitamin D receptor (VDR): qHTS
Stated Conditions: VDR-SRC2-3 peptide fluorescence polarization, 2 h; active compounds read low
In all, about 400,000 compounds went through this assay and about 3,700 (0.93%) were called active. Roughly 3% stayed inconclusive and do not appear here. The sample holds actives, similar compounds and a random draw of the others, so the mix is not that of the screen.
Report the value in % with no unit label.

Worked examples, 9 compounds total:
Cc1ccc(S(=O)(=O)N2CCOCC2)cc1C(=O)Nc1ccccc1N1CCCC1 | -16.8
CC(Nc1ccc(-c2nc(-c3ccco3)no2)cc1[N+](=O)[O-])c1ccccc1 (stereo not given) | 0.644
CCOC(=O)c1sc(NC(=O)/C=C/c2ccc(C(C)C)cc2)c(C(=O)OCC)c1C | -21.4
O=C(Nc1ccccc1-c1ccccc1)c1ccccc1[N+](=O)[O-] | -7.79
CC(C)c1ccc(C2C(C#N)=C(N)Oc3c2oc(CO)cc3=O)cc1 (stereo not given) | -3.81
Cc1cc(C(=O)Nc2cccc(C(F)(F)F)c2)c2c(C)nn(-c3cccc(F)c3)c2n1 | -0.555
Cc1ccc2ccc3c(c2n1)NS(=O)(=O)c1ccccc1-3 | -4.3
O=C(Nc1ccccc1N1CCCC1)c1ccc2ccccc2c1 | -2.28
Cc1cccc(-c2nc(SCc3ccc(Br)cc3)n3[nH]c(=O)cc3n2)c1 | 11.8

Now consider a different compound.
Input line: Entry `O=C(NNC(=O)c1ccc2ccccc2c1)c1ccc(Cl)cc1` has what max response, negative = inhibition?
Output line: 18.2

* * *

Catalogue of molecules with associated max response, negative = inhibition
Test System: Vitamin D3 receptor (Homo sapiens)
Procedure Summary: Inhibitors of the vitamin D receptor (VDR): qHTS
Stated Conditions: VDR-SRC2-3 peptide fluorescence polarization, 2 h; active compounds read low
Source text: The vitamin D receptor (VDR) is a ligand-activated transcription factor and is partially responsible for the regulation of the endocrine system. […] In a collaboration between the University of Wisconsin, Milwaukee and the NIH Chemical Genomics Center (NCGC) a HTS-compatible enzymatic assay was developed. The assay uses fluorescence polarization as its read-out to measure the inhibition between VDR and coregulator peptide SRC2-3 exerted by small molecules. […]
The whole screen tested about 400,000 compounds, of which about 3,700 (0.93%) were called active. Inconclusive results (about 3%) are left out. Many of the other results were omitted from the sample, so actives are more common in it than they were.
Numeric only. Scale: %

Input line: // query max response, negative = inhibition value for entry `COc1ccc(Cn2c(=O)[nH]c3cc(C(=O)N4CCN(C(=O)c5ccco5)CC4)ccc3c2=O)cc1`
Output line: -6.06

* * *

Test System: Vitamin D3 receptor (Homo sapiens) (UniProt P11473)
Procedure Summary: Inhibitors of the vitamin D receptor (VDR): qHTS; also: potency is read from the fitted curve at half-maximal effect
Stated Conditions: VDR-SRC2-3 peptide fluorescence polarization, 2 h
Hit rate of the full screen: of about 400,000 compounds, about 3,700 (0.93%) were called active. Not shown: some 3% with an inconclusive outcome. The sample as a whole holds a higher share of actives than the screen did.
Below: a set of entries, each annotated with reported Potency.

Solved entries:
Cc1ccc(C(=O)N2CCCC2)c(F)c1F | 44.7 µM (active)
CN(C)c1ccc(N/C=C/C(=O)C(F)(F)F)cc1 | 25.1 µM (active)
CCOC(=O)c1c(NC(=O)COc2cc(C)ccc2C(C)C)sc(C)c1C | 39.8 µM (active)
COc1ccc(/C=C/C(=O)c2cc(Br)ccc(=O)c2O)cc1 | 50.1 µM (active)
Oc1c(C(c2ccccn2)N2CCOCC2)ccc2cccnc12 (stereo not drawn) | 17.8 µM (active)

Turning now to a further molecule:
Input line: I would be grateful if you could share the reported Potency for `Oc1ccccc1N1CCN(c2ncnc3sc(-c4ccccc4)cc23)CC1` .
Output line: 22.4 µM (active)

* * *

Test System: Vitamin D3 receptor (Homo sapiens) (UniProt P11473)
Procedure Summary: Inhibitors of the vitamin D receptor (VDR): qHTS; as to max response, negative = inhibition: % is scaled to controls: 0 for no effect and ±100 for the full control effect
Stated Conditions: VDR-SRC2-3 peptide fluorescence polarization, 2 h; active compounds read low
Hit rate of the full screen: of about 400,000 compounds, about 3,700 (0.93%) were called active. About 3% were inconclusive and are not listed. The full list was thinned out, with actives kept by preference.
# Lookup of reported max response, negative = inhibition keyed by entry
Number only, in %; omit the unit.

O=C(CN1CCOCC1)Nc1cccc([N+](=O)[O-])c1 | -1.57
CCCCNC(=O)c1ccc2c(c1)NC(=O)C(C(C)C)N2 (stereo unspecified) | -3.65
O=C(NC1CC(=O)N(c2ccc(Cl)cc2)C1)C1CCCC1 (stereo unspecified) | -5.32
CCN(CC)c1ccc(NC(=O)Cn2nc3c(cc2=O)CCCC3)c(C)c1 | 2.95
COc1ccc(CCN=C2SCC(=O)N2Cc2ccccc2)cc1OC | 3.18
Cc1cccc(C)c1NC(=O)NC1=CCCN1C | 8.2

Input line: Return reported max response, negative = inhibition; argument: `COc1cc(C(=O)NCc2ccncc2)cc(Br)c1OCc1ccccc1`
Output line: -8.88

Input line: Form field: reported max response, negative = inhibition of `COc1cc(CNC2CCCC2)c(Br)cc1OCc1ccccc1`
Output line: 18.9

Input line: Look at this compound and give its reported max response, negative = inhibition. `COc1ccc(S(=O)(=O)NCc2cccn2Cc2cccc(C)c2)cc1`
Output line: -9.31

Input line: I am curious: what max response, negative = inhibition value has been reported for `CCOC(=O)c1c(C)n(S(=O)(=O)c2ccc(C)cc2C)c2ccc(NS(=O)(=O)c3ccc(C)cc3C)cc12` ?
Output line: -7.13

Input line: Fill blank: measured max response, negative = inhibition of the compound `O=C(CSc1nccn1C1CCCC1)Nc1cc(C(F)(F)F)ccc1Cl` is ____.
Output line: 24.3

* * *

Recorded max response, negative = inhibition values for a group of compounds are listed next.
Test System: Vitamin D3 receptor (Homo sapiens)
Procedure Summary: Inhibitors of the vitamin D receptor (VDR): qHTS; as to max response, negative = inhibition: % is scaled to controls: 0 for no effect and ±100 for the full control effect
Stated Conditions: VDR-SRC2-3 peptide fluorescence polarization, 2 h; active compounds read low
About 3,700 (0.93%) of roughly 400,000 compounds were called active. Inconclusive results (about 3%) are left out. What follows is part of a selection rich in actives, with near analogues and random picks from the rest.
A number alone suffices; assume %.

Input line: Item `Cc1cccc(N2C(=O)c3ccc(C(=O)Nc4cccc(C(=O)O)c4)cc3C2=O)c1` has what recorded max response, negative = inhibition?
Output line: 13.1

Input line: Recorded max response, negative = inhibition of `COc1ccc(OC)c(NC(=O)C2CCN(S(=O)(=O)c3ccc(C)cc3)CC2)c1` , please.
Output line: 29.3

Input line: Give the measured max response, negative = inhibition of `CC1CCN(c2nc3ccc(C(=O)N4CCN(c5ccccc5)CC4)cc3s2)CC1` .
Output line: 19.1

Input line: Report max response, negative = inhibition for Cc1ccc(C2C=C(c3ccc(Cl)cc3)Nc3nc(NC(=O)CCC(=O)O)nn32)cc1 (stereo not given) please.
Output line: -1.64

Input line: Which max response, negative = inhibition is listed for `CN(C)S(=O)(=O)N1CCN(c2ccc([N+](=O)[O-])cc2)CC1` ?
Output line: -2.16

* * *

Test System: Vitamin D3 receptor (Homo sapiens)
Procedure Summary: Inhibitors of the vitamin D receptor (VDR): qHTS; as to max response, negative = inhibition: % is scaled to controls: 0 for no effect and ±100 for the full control effect
Stated Conditions: VDR-SRC2-3 peptide fluorescence polarization, 2 h; active compounds read low
In all, about 400,000 compounds went through this assay and about 3,700 (0.93%) were called active. Not shown: some 3% with an inconclusive outcome. The sample as a whole holds a higher share of actives than the screen did.
Overview of recorded max response, negative = inhibition for various compounds

The following compounds have reported results that may help.
O=C(Cn1nc(C(F)(F)F)c2c1CCCC2)Nc1ccc(Cl)cc1 | 4.81% (inactive)
COC(=O)c1ccc(NC(=O)CSc2n[nH]c(-c3ccccc3)n2)cc1 | 9.27% (inactive)
Nc1ccc2c(c1)C(O)c1ccc(Cl)cc1-2 (stereo not given) | 1.49% (inactive)

Input line: Return reported max response, negative = inhibition; argument: `Cc1ccc(C(=O)Nc2ccc3[nH]c(=O)c(=O)[nH]c3c2)cc1`
Output line: -3.19% (inactive)

* * *

Test System: Vitamin D3 receptor (Homo sapiens)
Procedure Summary: Inhibitors of the vitamin D receptor (VDR): qHTS; as to max response, negative = inhibition: % is scaled to controls: 0 for no effect and ±100 for the full control effect
Stated Conditions: VDR-SRC2-3 peptide fluorescence polarization, 2 h; active compounds read low
The campaign covered roughly 400,000 compounds. About 3,700 (0.93%) were called active. Roughly 3% stayed inconclusive and do not appear here. Only a selection was taken, and actives are over-represented in it overall.
max response, negative = inhibition: recorded values
Unit % implied. Number only.

Study these solved cases before continuing.
Cc1c(Br)cc(C(=O)N2CCCCCC2)c(C)c1C | -2.34
CC(=O)c1cc(-c2ccccc2)[nH]c1N1CCCC1 | 0
COc1cc(NC(=O)CSc2nc3nc(C)c(Cc4ccc(C)cc4)c(C)n3n2)cc(OC)c1OC | 12.5
Cc1ccc(C(NC(=O)N2CCCC2)C(Cl)(Cl)Cl)cc1F (stereo unspecified) | 6.9
CC(=O)N1c2ccc(S(=O)(=O)N3CCCCCC3)cc2CC1C(=O)NCc1ccccc1C (stereo unspecified) | 5.71
CCc1nnc(SCC(=O)Nc2cc(OC)ccc2OC)nc1CC | 8.11
Cc1ccc(-c2cnc(NCc3ccc(C(C)C)cc3)n2C)cc1 | -12.2
Cc1cccc(-n2ccnc2SCC(=O)Nc2cccc3ccccc23)c1C | 21
Cc1cc(C(=O)COC(=O)CCCN2C(=O)c3ccccc3C2=O)c(C)n1C | 11.4
CCN(CC)C(=O)CSc1nc2cc3c(cc2c(=O)n1CCCC(=O)NCc1ccc2c(c1)OCO2)OCO3 | 4.85

We now examine a further compound.
Input line: Need max response, negative = inhibition of `O=S(=O)(Nc1cccc2cccnc12)c1cccc2cccnc12` , thanks.
Output line: -4.84
